From: patent US20230348616A1

Below, each of the binders is paired with its reported standardized gMFI value.
target: T1, 8A; assay: flow cytometry on peptide-pulsed T2 cells, scFv 100 nM
T1 construct: also called HLA-A2 / point-mutant NY-ESO peptide 8A complex on T2 cells
Enter a number only.

- BINDER: "NYA-2061 (scFv, also called NYA-2061 tag adduct) scFv: GEVQLVESGGGLVQPGGSLRLSCAASGFSIRSYDIHWVRQAPGKGLEWVATISYDGSQKYYADSVKGRFTISRDESKNTLYLQMNSLRAEDTAVYHCARGSSGHYEAFDIWGQGTLVTVSSGGGGSGGGGSGGGGSQSVLTQPPSASGTPGQRVTISCSGSSSNIGNWYVSWYQQLPGTAPKLLIYDNNKRPSGVPDRFSGSKSGTSASLAISGLQSEDEADYYCGTWDSSLSAPWVFGGGTKLTVLGAAAGAGGDYKDDDDKGAAAHHHHHH"
  standardized gMFI: 5.22

Would you kindly look at the next entry?
// standardized gMFI lookup, binder = NYA-2027 (scFv) scFv: GEVQLVESGGGVVQPGRSLTPSCSASGFSIRSYDIHWVRQAPGKGLEWVATISYDGSQKYFADSVKGRFTIFRDESENMVYLQMSGLRVEDTAVYHCARGSSGHYEAFDIWGQGTMVTVSSGGGGSGGGGSGGGGSQSVLTQPPSVSAAPGQKVTISCSGSSSNIGNNYVSWYQQLPGTAPKLLIYDNNKRPSGIPDRFSGSKSGTSATLGITGLQTGDEADYYCGSWDSSLSAPWVFGGGTKVTVLGAAAGAGGDYKDDDDKGAAAHHHHHH , result: 9.47
